tested on: A549/ATCC NSCLC; assay: NCI-60 one-dose screen, 48 h (100 = growth as untreated, 0 = no growth, -100 = all killed); conditions: 10 µM unless noted
This is part of a sample that, as a whole, favours compounds with a hit. Of some 83,000 tested, about 20% had one in any assay. Active and inactive are the calls of the source. Rule for the calls: active = growth percent below 10; inactive = the rest.

{"columns": ["molecular.string", "study.target", "growth"],
 "data": [
  ["COc1cc2c(cc1OCCCOc1cc3c(cc1OC)C(=O)N1CC(F)(F)C[C@H]1C=N3)N=C[C@@H]1CC(F)(F)CN1C2=O", "A549/ATCC NSCLC", "36.1% (inactive)"],
  ["C/C(=C\\c1cnc(C)s1)[C@@H]1C[C@@H]2O[C@@H]2CCC[C@H](C)[C@H](O)[C@@H](C)C(=O)C(C)(C)[C@@H](O)CC(=O)O1", "A549/ATCC NSCLC", "42.3% (inactive)"],
  ["C=C1C(=O)O[C@H]2[C@H]1CC/C(COC(=O)c1c[nH]c3ccccc13)=C\\CC[C@@]1(C)O[C@@H]21", "A549/ATCC NSCLC", "-7.16% (active)"],
  ["CCOC(=O)c1c(C)nc2c(c1N)/C(=C/c1ccccn1)C(=O)N2Cc1ccccc1", "A549/ATCC NSCLC", "44.6% (inactive)"],
  ["NC[C@@H]1CCN(c2cc3c(cc2F)c(=O)n(N)c(=O)n3Cc2ccc(-c3ccccc3)cc2)C1", "A549/ATCC NSCLC", "89.6% (inactive)"],
  ["c1ccc(-c2n(Cc3ccc4ccccc4n3)cc[n+]2Cc2ccc3ccccc3n2)cc1", "A549/ATCC NSCLC", "73.3% (inactive)"],
  ["O=C1C(=O)c2c(nc3ccc(Br)cn23)-c2ccccc21", "A549/ATCC NSCLC", "-63.5% (active)"],
  ["COCCc1n(Cc2ccc3ccccc3c2)c2ccccc2[n+]1Cc1ccc2ccccc2c1", "A549/ATCC NSCLC", "4.72% (active)"]
]}

###

system: NCI-H522 lung; assay: NCI-60 one-dose screen, 48 h (100 = growth as untreated, 0 = no growth, -100 = all killed); settings: 10 µM unless noted
The panel holds about 83,000 compounds, 20% with a hit somewhere; the sample as a whole holds those more often.

{"columns": ["compound", "study.target", "growth (%)"],
 "data": [
  ["OCCNc1nc(NCCO)nc(Nc2ccc(C3=NN(c4ccc(Cl)cc4)C(c4ccc(Cl)cc4)C3)cc2)n1 (centres undefined)", "NCI-H522 lung", 63.9],
  ["C#CCN1C(=O)c2ccccc2N(CC#C)C12CCN(Cc1cn(CC(=O)Nc3ccccc3C(N)=O)nn1)CC2", "NCI-H522 lung", 67.7],
  ["COc1ccc(/C=C/C(=O)C(CC2CCC2)C(=O)/C=C/c2ccc(OC)c(OC)c2)cc1OC", "NCI-H522 lung", -38.2],
  ["COc1ccc2nc(-c3ccc(Cl)cc3)cc(-c3nnc(SC/C(=N/O)c4ccccc4)o3)c2c1", "NCI-H522 lung", 45.7]
]}

###

test system: COLO 205 colon; test: NCI-60 one-dose screen, 48 h; conditions: 10 µM unless noted
The panel holds about 83,000 compounds, 20% with a hit somewhere; the sample as a whole holds those more often. Activity calls are given as the source filed them. Rule for the calls: active = growth percent below 10; inactive = the rest.
Outcomes: active, inactive

{"columns": ["compound", "study.target", "class"],
 "data": [
  ["COc1cc(NC(=O)Nc2cnc(Nc3ccc(N4CCOCC4)cc3)nc2Oc2ccc(F)cc2)cc(OC)c1", "COLO 205 colon", "inactive"],
  ["Nc1cc(N)c(S(=O)(=O)O)cc1N=Nc1cc([N+](=O)[O-])ccc1O", "COLO 205 colon", "inactive"],
  ["C#Cc1ccccc1NC(=O)c1sc2nc3c(cc2c1N)CCCCC3", "COLO 205 colon", "inactive"],
  ["CC(C)Cc1cc(CNC(=O)C2[C@H]3CN(C(=O)c4ccccc4)C[C@@H]23)nn1-c1ccccc1 (stereo partly drawn)", "COLO 205 colon", "inactive"],
  ["CC(=O)c1c(OCC#N)ccc2c(C)cc(=O)oc12", "COLO 205 colon", "inactive"],
  ["COC(=O)/C=C/c1cc(OC)c2c(c1)[C@@H](C(=O)OC)[C@H](c1ccc(OC)c(OC)c1)O2", "COLO 205 colon", "inactive"],
  ["CCN(CC)c1ccc2c(c1)Oc1nc(N)c(C#N)c(N)c1C2Sc1ccc(OC)cc1 (stereo not drawn)", "COLO 205 colon", "active"],
  ["C#C[C@@]1(O)[C@@H](CO)O[C@@H](n2cc(Br)c3c(N)ncnc32)[C@@H]1O", "COLO 205 colon", "active"],
  ["COc1ccc(Cc2nc(C#N)c(N3CCN(c4ccc(F)cc4)CC3)o2)cc1", "COLO 205 colon", "inactive"],
  ["O=C1NC(c2ccc(F)cc2)N=C2C(c3ccccc3)=NOC12 (stereo not drawn)", "COLO 205 colon", "inactive"],
  ["Cc1ccc(C2CC(c3ccc(Nc4nc(NCCO)nc(NCCO)n4)cc3)=NN2c2ccc(Cl)cc2)cc1 (stereo not drawn)", "COLO 205 colon", "inactive"],
  ["CNC(=O)c1cc(Oc2ccc3c(c2)sc2nc(-c4ccc(NC(C)=O)cc4)cn23)ccn1", "COLO 205 colon", "inactive"],
  ["Cc1c(Br)cccc1NC(=O)c1sc2nc3c(cc2c1N)CN(Cc1ccccc1)CC3", "COLO 205 colon", "active"],
  ["COc1ccc(C2C(c3ccccc3)C(=O)N2c2cc(OC)c(OC)c(OC)c2)cc1I (stereo not drawn)", "COLO 205 colon", "active"],
  ["O=[N+]([O-])c1cccc(CN(Cc2cccc([N+](=O)[O-])c2O)c2ccccc2)c1O", "COLO 205 colon", "inactive"],
  ["COc1cc(C2=NN(C=O)C(c3cccc(Nc4ccnc5cc(C(F)(F)F)ccc45)c3)C2)cc(OC)c1OC (stereo not drawn)", "COLO 205 colon", "inactive"],
  ["CN1CCN(C(=O)[C@@]2(C)CC[C@]3(C)CC[C@]4(C)C(=CC[C@@H]5[C@@]6(C)CC[C@H](OC(=O)c7cccnc7)C(C)(C)[C@@H]6CC[C@]54C)[C@@H]3C2)CC1", "COLO 205 colon", "inactive"],
  ["O=C(CCCCCCCCC(=O)Nc1cccc(C2=NCCN2)c1)Nc1cccc(C2=NCCN2)c1", "COLO 205 colon", "inactive"]
]}
